subject-of-test: IKBKB (IKKβ) (Homo sapiens, UniProt O14920)
Sequence (O14920 1-756): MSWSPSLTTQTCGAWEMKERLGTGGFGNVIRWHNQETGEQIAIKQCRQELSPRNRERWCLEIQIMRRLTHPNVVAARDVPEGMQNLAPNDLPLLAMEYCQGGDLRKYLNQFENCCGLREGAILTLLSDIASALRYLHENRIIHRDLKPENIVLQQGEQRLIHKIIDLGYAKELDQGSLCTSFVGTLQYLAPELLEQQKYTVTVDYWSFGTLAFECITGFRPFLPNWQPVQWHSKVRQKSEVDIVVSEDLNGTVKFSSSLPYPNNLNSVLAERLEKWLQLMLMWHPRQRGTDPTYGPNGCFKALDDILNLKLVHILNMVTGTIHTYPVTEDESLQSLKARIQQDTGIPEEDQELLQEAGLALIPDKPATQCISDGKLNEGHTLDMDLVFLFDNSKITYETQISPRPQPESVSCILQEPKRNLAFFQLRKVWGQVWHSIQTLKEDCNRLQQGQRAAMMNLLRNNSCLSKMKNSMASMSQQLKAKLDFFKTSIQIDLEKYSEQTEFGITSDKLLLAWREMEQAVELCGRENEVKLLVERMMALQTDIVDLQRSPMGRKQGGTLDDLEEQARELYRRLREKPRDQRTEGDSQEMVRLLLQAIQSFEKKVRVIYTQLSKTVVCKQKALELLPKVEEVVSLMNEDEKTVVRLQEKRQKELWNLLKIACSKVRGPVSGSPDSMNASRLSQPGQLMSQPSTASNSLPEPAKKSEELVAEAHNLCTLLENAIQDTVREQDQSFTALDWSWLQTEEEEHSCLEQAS
pIC50: −log10 of the molar value.
recorded-endpoint: pIC50

Exam item: Which value of pIC50 has been reported for CC(C)(C)OC(=O)[C@@H](NC/C=C/c1ccc(-c2cc(C(N)=O)c(NC(N)=O)s2)cc1)C1CCCCC1 in the records?
Marked response: > 6.00

Exam item: Which value of pIC50 has been reported for CC(C)C[C@H](NCCCCCOc1ccc(-c2cc(C(N)=O)c(NC(N)=O)s2)c(Cl)c1)C(=O)O in the records?
Marked response: > 6.00

Exam item: Which value of pIC50 has been reported for Cc1cc(-c2cc(C(N)=O)c(NC(N)=O)s2)ccc1CN[C@@H](CC(C)C)C(=O)OC1CCCC1 in the records?
Marked response: > 6.00

Exam item: Which value of pIC50 has been reported for CC(C)C[C@H](NCCc1cccc(-c2cc(C(N)=O)c(NC(N)=O)s2)c1)C(=O)OC1CCCC1 in the records?
Marked response: 5.30 to 6.00

----------
Tested on: human whole blood
protocol-summary: LPS-Stimulation of Human Whole Blood, TNF-α release
Format: cell-based
condition-notes: LPS 100 ng/ml, 6 hrs, read-out: Inhibitor activity versus human whole blood TNFα release
pIC50: −log10 of the molar value.
// pIC50 lookup, one value per entry

For orientation, consider the following solved cases.
{"compound-structure-string": "NC(=O)Nc1sc(-c2cccc(CN[C@H](C(=O)OC3CCCC3)C3CCCCC3)c2)cc1C(N)=O", "recorded-endpoint": "pIC50", "value-measured": "5.30 to 6.00"}
{"compound-structure-string": "CC(C)C[C@H](NC/C=C/c1ccc(-c2cc(C(N)=O)c(NC(N)=O)s2)cc1)C(=O)OC(C)(C)C", "recorded-endpoint": "pIC50", "value-measured": "< 5.30"}
{"compound-structure-string": "CC(C)C[C@@H](NC/C=C/c1ccc(-c2cc(C(N)=O)c(NC(N)=O)s2)cc1)C(=O)OC1CCCC1", "recorded-endpoint": "pIC50", "value-measured": "5.30 to 6.00"}
{"compound-structure-string": "NC(=O)Nc1sc(-c2cccc(CCN[C@H](C(=O)OC3CCCC3)c3ccccc3)c2)cc1C(N)=O", "recorded-endpoint": "pIC50", "value-measured": "> 6.00"}
{"compound-structure-string": "CC(C)C[C@H](NC/C=C/c1ccc(-c2cc(C(N)=O)c(NC(N)=O)s2)cc1F)C(=O)OC1CCCC1", "recorded-endpoint": "pIC50", "value-measured": "5.30 to 6.00"}

Exam item: Which value of pIC50 has been reported for C[C@@H](O)[C@H](NC/C=C/c1ccc(-c2cc(C(N)=O)c(NC(N)=O)s2)cc1)C(=O)OC1CCCC1 in the records?
Marked response: 5.30 to 6.00

Exam item: Which value of pIC50 has been reported for CC(C)C[C@H](NCc1ccc(-c2cc(C(N)=O)c(NC(N)=O)s2)cc1)C(=O)OC1CCCC1 in the records?
Marked response: 5.30 to 6.00
